# Tested on: K-562
# experimentalProtocol: NCI 60 five-dose screen K-562
# Format: cell-based
# testSettings: Homo sapiens, K562, five-dose
readoutKind: pIC50
// returns pIC50 (minus log10 of molar concentration), number only

Query string: Answer with pIC50 of FC(F)(F)c1cc2c(Cl)ncnc2n1CCN1CCOCC1 [NUCC-0226680] measured for K-562.
Result string: 5.43

Query string: Report pIC50 under test system K-562 for FC(F)(F)CN1CCN(CCn2c(C(F)(F)F)cc3c(Cl)ncnc32)CC1 [NUCC-0226683] .
Result string: 5.46

Query string: Would you please give the reported pIC50 of OC1CCC(Cn2c(C(F)(F)F)cc3c(Cl)ncnc32)CC1 (centres unmarked) [NUCC-0226689] with K-562?
Result string: 5.45

Query string: Please respond with reported pIC50 (system K-562) for FC(F)(F)c1cc2c(Cl)ncnc2n1CCC1CCOCC1 [NUCC-0226674] .
Result string: 5.44

Query string: Report pIC50 on K-562 for this entry: FC(F)(F)c1cc2c(Cl)ncnc2n1CCN1CCCCC1 [NUCC-0226679]
Result string: 5.44
